- System: SN12C
- experiment_description: AUC of dose-response viability curve, drug alone (arbitrary (AUC of normalised viability)); higher = less growth inhibition
- experimental_setup: treatment: drug alone; 5 days
assay_endpoint: AUC of dose-response viability curve

Q) Any idea what AUC of dose-response viability curve came out for COc1cc(Nc2ncc(F)c(Nc3ccc4c(n3)N(COP(=O)(O)O)C(=O)C(C)(C)O4)n2)cc(OC)c1OC [R788 (Fostamatinib)] on SN12C?
A) 2.79

Q) Any idea what AUC of dose-response viability curve came out for O=C1NC(=O)/C(=C/c2ccc3c(c2)OC(F)(F)O3)S1 on SN12C?
A) 3.07

* * *

- Tested on: TK-10
- experiment_description: GI50 of drug in presence of dasatinib; higher = less potent
- experimental_setup: treatment: drug + dasatinib (fixed dose, not stated); 5 days
This section presents molecules with their documented GI50 of drug values.

Here's what some known entries look like.
{"molecule": "OCc1ccc(-c2ccc(-c3ccc(CO)s3)o2)s1 + Cc1nc(Nc2ncc(C(=O)Nc3c(C)cccc3Cl)s2)cc(N2CCN(CCO)CC2)n1 [dasatinib]", "GI50 of drug": "0.015 µM"}
{"molecule": "COc1ccc(COc2cc3oc(=O)c4cc(C(C)O)ccc4c3cc2OC)cc1 (stereo not drawn) [Palomid 529] + Cc1nc(Nc2ncc(C(=O)Nc3c(C)cccc3Cl)s2)cc(N2CCN(CCO)CC2)n1 [dasatinib]", "GI50 of drug": "> 10 µM"}

Q) Look up GI50 of drug for this molecule: Cc1ccc(NC(=O)c2cccc(N(C)C)c2)cc1NC(=O)c1ccc(O)cc1 + Cc1nc(Nc2ncc(C(=O)Nc3c(C)cccc3Cl)s2)cc(N2CCN(CCO)CC2)n1 [dasatinib]
A) > 10 µM

* * *

- Test system: 786-O
- experiment_description: minimum viability across doses, drug + dasatinib, relative to DMSO (fraction); higher = less growth inhibition
- experimental_setup: treatment: drug + dasatinib (fixed dose, not stated); 5 days
assay_endpoint: minimum viability across doses
# print the numeric value only

Here's what some known entries look like.
{"compound": "Cn1c(=O)n(-c2ccc(C(C)(C)C#N)cc2)c2c3cc(-c4cnc5ccccc5c4)ccc3ncc21 [BEZ235 (NVP-BEZ235)] + Cc1nc(Nc2ncc(C(=O)Nc3c(C)cccc3Cl)s2)cc(N2CCN(CCO)CC2)n1", "minimum viability across doses": 0.0643}
{"compound": "CS(=O)c1ccc(-c2nc(-c3ccc(F)cc3)c(-c3ccncc3)[nH]2)cc1 (centres undefined) + Cc1nc(Nc2ncc(C(=O)Nc3c(C)cccc3Cl)s2)cc(N2CCN(CCO)CC2)n1", "minimum viability across doses": 0.746}
{"compound": "COc1cc(Nc2ncc(F)c(Nc3ccc4c(n3)NC(=O)C(C)(C)O4)n2)cc(OC)c1OC.O=S(=O)(O)c1ccccc1 [R406] + Cc1nc(Nc2ncc(C(=O)Nc3c(C)cccc3Cl)s2)cc(N2CCN(CCO)CC2)n1", "minimum viability across doses": 0.232}

Q) Look up minimum viability across doses for this compound: FC(F)c1nc2ccccc2n1-c1nc(N2CCOCC2)nc(N2CCOCC2)n1 [ZSTK474] + Cc1nc(Nc2ncc(C(=O)Nc3c(C)cccc3Cl)s2)cc(N2CCN(CCO)CC2)n1
A) 0.00535

Q) Look up minimum viability across doses for this compound: Cc1ccccc1-n1c(Cn2ncc3c(N)ncnc32)nc2cccc(C)c2c1=O [PIK-293] + Cc1nc(Nc2ncc(C(=O)Nc3c(C)cccc3Cl)s2)cc(N2CCN(CCO)CC2)n1
A) 0.6

Q) Look up minimum viability across doses for this compound: CCN(CCO)CCCOc1ccc2c(Nc3cc(CC(=O)Nc4cccc(F)c4)n[nH]3)ncnc2c1 [Barasertib (AZD1152-HQPA)] + Cc1nc(Nc2ncc(C(=O)Nc3c(C)cccc3Cl)s2)cc(N2CCN(CCO)CC2)n1
A) 0.157

Q) Look up minimum viability across doses for this compound: O=C1Nc2ccccc2/C1=C1/Nc2ccccc2C1=O [Indirubin] + Cc1nc(Nc2ncc(C(=O)Nc3c(C)cccc3Cl)s2)cc(N2CCN(CCO)CC2)n1
A) 0.394

Q) Look up minimum viability across doses for this compound: Cc1nc(NC(=O)N2CCC[C@H]2C(N)=O)sc1-c1csc(C(C)(C)C)n1 [A66] + Cc1nc(Nc2ncc(C(=O)Nc3c(C)cccc3Cl)s2)cc(N2CCN(CCO)CC2)n1
A) 0.352

Q) Look up minimum viability across doses for this compound: O=C(NCCCNc1nc(Nc2cccc(NC(=O)N3CCCC3)c2)ncc1I)c1cccs1 [BX-795] + Cc1nc(Nc2ncc(C(=O)Nc3c(C)cccc3Cl)s2)cc(N2CCN(CCO)CC2)n1
A) 0.00318
